Assay: Pharmacokinetic evaluation of Vacquinol-1 stereoisomers, plasma and brain
Type: in vivo, NMRI (SR/RS) or BALB/c (Vrac) mice
Conditions: NMRI (single stereoisomers SR/RS), BALB/c (racemate), mouse, plasma, iv; 2 mg/kg i.v., mice
VALUE KIND: Cmax (ng/mL)
API: value field is a number in ng/mL; no unit string.

input: What does the data say about its Cmax? Entry: OC(c1cc(-c2ccc(Cl)cc2)nc2ccccc12)C1CCCCN1 (racemic)
output: 467

---

System: glioma stem cell line U3013
Test: In vitro cancer cell and CSC viability assay (ATP quantification, CellTiterGlo)
Type: cell-based, human
Details: Homo sapiens; U3013, 24 hours exposure; read-out: In vitro efficacy (viability) EC50
VALUE KIND: log10(EC50) (log10 of the value in nM)
// do not treat as linear: log10 of EC50, unit nM

> print(dat)
                                   compound  reported.result
1  OC(c1cc(-c2cccc(Cl)c2)nc2ccccc12)C1CCCCN1 (centres unmarked)             3.10
2  O[C@@H](c1cc(-c2ccc(Cl)cc2)nc2ccccc12)[C@H]1CCCCN1             3.43
3  O[C@H](c1cc(-c2ccc(C(F)(F)F)cc2)nc2ccccc12)[C@@H]1CCCCN1 (racemic)             4.13
4  OC(c1cc(-c2ccc(Cl)c(Cl)c2)nc2ccccc12)C1CCCCN1 (centres unmarked)             3.20

input: Which log10(EC50) value belongs to CN(Cc1ccc(-c2cc(C(O)C3CCCCN3)c3ccccc3n2)cc1)C(=O)OC(C)(C)C (centres unmarked) ?
output: 3.35

---

Assay: Pharmacokinetic evaluation of Vacquinol-1 stereoisomers, plasma and brain
Type: in vivo, NMRI (SR/RS) or BALB/c (Vrac) mice
Conditions: NMRI (single stereoisomers SR/RS), BALB/c (racemate), mouse, brain and plasma, 20 mg/kg; after oral dosing; read-out: relative brain/plasma exposure ratio (AUClast(brain)/AUClast(plasma))
VALUE KIND: Kp

input: State the recorded Kp for this entry: OC(c1cc(-c2ccc(Cl)cc2)nc2ccccc12)C1CCCCN1 (racemic)
output: 0.6

---

Assay: Pharmacokinetic evaluation of Vacquinol-1 stereoisomers, plasma and brain
Format: in vivo, NMRI (SR/RS) or BALB/c (Vrac) mice
Settings: NMRI (single stereoisomers SR/RS), BALB/c (racemate), mouse, plasma, po; 20 mg/kg p.o., mice; read-out: tmax Plasma
VALUE KIND: Tmax (h)
Answer in h, number only, no unit symbol.

input: Returns the measured Tmax for the input compound. Input: OC(c1cc(-c2ccc(Cl)cc2)nc2ccccc12)C1CCCCN1 (racemic) [Compound S10]
output: 24

---

Test system: glioma stem cell line U3013
Test: In vitro cancer cell and CSC viability assay (ATP quantification, CellTiterGlo)
Format: cell-based, human
Conditions: Homo sapiens; U3013, 24 hours exposure; read-out: In vitro efficacy (viability) EC50
VALUE KIND: log10 EC50 (log10 of the value in µM)
Please be aware that the numbers have been log10-transformed from EC50 in µM.

Some solved entries appear below for comparison.
> print(dat)
                                   compound          experimental.target  value.kind  reported.result
1  O[C@H](c1cc(-c2ccc(Cl)cc2)nc2ccccc12)[C@@H]1CCCCN1  glioma stem cell line U3013  log10 EC50             0.24
2  OC(c1cc(C(F)(F)F)nc2c(Cl)cc(Cl)cc12)C1CCCCN1 (centres unmarked)  glioma stem cell line U3013  log10 EC50             0.98
3  OC(c1cc(-c2ccccc2)nc2cc(Cl)ccc12)C1CCCCN1 (centres unmarked)  glioma stem cell line U3013  log10 EC50             0.43
4  OC(c1cc([C@]23CC4CC[C@H](C[C@H]4C2)C3)nc2c(Cl)cc(Cl)cc12)C1CCCCN1 (some centres unmarked)  glioma stem cell line U3013  log10 EC50            -0.39

input: Name the recorded log10 EC50 for OC(c1cc(-c2ccccc2)nc2c(Cl)cc(Cl)cc12)C1CCCCN1 (centres unmarked) .
output: 0.04
